- target-or-test-system: human recombinant HPK1 (Homo sapiens, UniProt Q92918)
- Sequence (Q92918 whole entry): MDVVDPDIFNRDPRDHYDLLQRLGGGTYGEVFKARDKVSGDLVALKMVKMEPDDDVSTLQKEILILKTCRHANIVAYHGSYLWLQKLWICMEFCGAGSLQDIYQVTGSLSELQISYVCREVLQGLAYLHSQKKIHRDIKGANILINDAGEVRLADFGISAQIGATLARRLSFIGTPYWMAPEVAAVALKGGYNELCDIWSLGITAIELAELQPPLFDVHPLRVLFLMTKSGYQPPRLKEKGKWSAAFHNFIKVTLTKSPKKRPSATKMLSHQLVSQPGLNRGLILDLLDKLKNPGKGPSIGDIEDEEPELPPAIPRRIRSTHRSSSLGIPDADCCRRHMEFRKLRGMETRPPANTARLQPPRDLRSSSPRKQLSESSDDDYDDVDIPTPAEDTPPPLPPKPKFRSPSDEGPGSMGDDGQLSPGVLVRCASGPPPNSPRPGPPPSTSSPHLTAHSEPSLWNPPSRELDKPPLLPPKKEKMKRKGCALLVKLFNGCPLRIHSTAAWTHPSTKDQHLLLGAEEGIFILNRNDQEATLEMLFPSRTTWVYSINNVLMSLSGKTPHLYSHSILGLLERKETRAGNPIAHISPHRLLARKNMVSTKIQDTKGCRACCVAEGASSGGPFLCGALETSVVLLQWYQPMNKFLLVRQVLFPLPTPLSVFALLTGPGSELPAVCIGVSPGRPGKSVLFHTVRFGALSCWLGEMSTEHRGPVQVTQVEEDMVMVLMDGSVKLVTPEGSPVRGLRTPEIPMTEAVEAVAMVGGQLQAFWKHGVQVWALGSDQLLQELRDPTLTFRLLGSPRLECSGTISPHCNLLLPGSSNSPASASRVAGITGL
- assay-overview: Inhibitory activity against human recombinant HPK1 (TR-FRET)
- condition-summary: ULight-p70S6K peptide, ATP at Km, room temperature, 1 hour, 0.32 to 1000 nM compound
Counter-ions that a name gives are not always drawn.
// values below are reported IC50

| compound | result |
| --- | --- |
| COc1cccc(F)c1-c1nccc(Nc2cc(N3CCC[C@H](N)C3)c(-c3ccc(C(=O)N4CCNCC4)cc3)cn2)n1 [Example 265, hydrochloride] | ≤ 10 nM |

Quick note, IC50 for COc1cccc(F)c1-c1nccc(Nc2cc(N3CC[C@@H](OC)[C@H](N)C3)c(-c3cnn(C(F)F)c3)cn2)n1 [Example 254] landed at ≤ 10 nM

Quick note, IC50 for COc1cccc(F)c1-c1nc(Nc2cc(N3CCC[C@H](O)C3)c(-c3cnn(C4CCOCC4)c3)cn2)ccc1C(N)=O [Example 112] landed at ≤ 10 nM

* * *

// values below are reported IC50
- target-or-test-system: human recombinant HPK1 (Homo sapiens)
- assay-overview: Inhibitory activity against human recombinant HPK1 (TR-FRET)
- condition-summary: ULight-p70S6K peptide, ATP at Km, room temperature, 1 hour, 0.32 to 1000 nM compound
Structures can show the parent of a compound that is named as a salt.

// solved cases for IC50 follow
| compound | IC50 |
| --- | --- |
| N[C@H]1CCCN(c2cc(Nc3cccc(N4CCOC4=O)n3)ncc2-c2ccc(N3CCOCC3)nc2)C1 [Example 138, hydrochloride] | 50 to 100 nM |
| COc1cccc(F)c1-c1nccc(Nc2cc(N3CCC[C@H](N)C3)c(-c3ccc(C(=O)N4CCOCC4)cc3)cn2)n1 [Example 255, hydrochloride] | ≤ 10 nM |

Shift focus to the following entry.
Quick note, IC50 for COc1cccc(F)c1-c1nc(Nc2cc(N3CCC[C@H](N)C3)c(-c3cnn(C(F)F)c3)cn2)ccc1S(C)(=O)=O [Example 315, hydrochloride] landed at ≤ 10 nM

* * *

- target-or-test-system: human recombinant HPK1 (Homo sapiens, UniProt Q92918)
- Construct: purchased BPS Bioscience
- assay-overview: Inhibitory activity against human recombinant HPK1 (TR-FRET)
- Format: biochemical
- condition-summary: ULight-p70S6K peptide, ATP at Km, room temperature, 1 hour, 0.32 to 1000 nM compound
Where a name gives a salt, the structure may show the parent alone.
result-type: IC50

| molecule | result-type | result |
| --- | --- | --- |
| COc1cccc(F)c1-c1nccc(Nc2cc(N3CCCC(C(N)=O)C3)c(-c3cnn(C4CCOCC4)c3)cn2)n1 (stereo not shown) | IC50 | 10 to 50 nM |
| COc1cccc(F)c1-c1nccc(Nc2cc(N3CCC[C@H](O)C3)c(-c3ccc(CN4CCOCC4)nc3)cn2)n1 | IC50 | 10 to 50 nM |
| COCCCn1cc(-c2cnc(Nc3ccnc(-c4c(F)cccc4OC)n3)cc2N2CCC[C@H](N)C2)cn1 [Example 116, hydrochloride] | IC50 | ≤ 10 nM |

The value of IC50 recorded for `COc1cccc(F)c1-c1nc(Nc2cc(N3CCC[C@H](O)C3)c(C#Cc3cnn(CC(F)F)c3)cn2)ccc1[N+](=O)[O-]` when tested on human recombinant HPK1 (Homo sapiens, UniProt Q92918) reads ≤ 10 nM
